# System: HCC-2998 colon
# method.description: NCI tumour cell line growth inhibition, 48 h
parameter.measured: TGI

compound=COc1cc(-c2ccc(N=Nc3ccc4c(S(=O)(=O)O)cc(S(=O)(=O)O)c(N)c4c3O)c(OC)c2)ccc1N=Nc1ccc2c(S(=O)(=O)O)cc(S(=O)(=O)O)c(N)c2c1O parameter_measured=TGI result_value="> 100 µM"
compound=N=c1ccc2nc3ccc(N)cc3sc-2c1 parameter_measured=TGI result_value="97.7 µM"
compound="CC(=O)OC(C(=O)[O][Sn]([CH3])([CH3])[CH3])c1ccccc1 (stereo not drawn)" parameter_measured=TGI result_value="> 100 µM"
compound=O=c1[nH]nc(-c2ccccc2)n1/N=C/c1ccccc1O parameter_measured=TGI result_value="> 100 µM"
compound="CC(C)(C)[Si](C)(C)OC1[C@@H](CNC(N)=O)O[C@@H](n2cnc3c(NC(=O)Nc4ccccc4)ncnc32)[C@H]1O[Si](C)(C)C(C)(C)C (stereo partly drawn)" parameter_measured=TGI result_value="6.18 µM"
compound=CCN1[C@@H](C(=O)NC23CCC(C(=O)O)(CC2)CC3)[C@H](c2cccc(Cl)c2F)[C@]2(C(=O)Nc3cc(Cl)ccc32)C12CCCCC2 parameter_measured=TGI result_value="6.89 µM"
compound=O=[N+]([O-])C(/C(Cl)=C(\Cl)Br)=C(/Cl)SCc1ccccc1 parameter_measured=TGI result_value="25.1 µM"
compound=O=C1/C(=C\c2ccco2)Oc2ccccc21 parameter_measured=TGI result_value="> 100 µM"

* * *

# Tested on: MALME-3M melanoma
# method.description: NCI tumour cell line growth inhibition, 48 h
parameter.measured: TGI

compound="CC12CC(=O)Nc3ccccc3N1C(c1ccccc1)=NO2 (centres undefined)" parameter_measured=TGI result_value="> 100 µM"
compound=COc1ccc(-c2oc3cc(OC)c(OC)c(O)c3c(=O)c2OC)cc1 parameter_measured=TGI result_value="> 100 µM"
compound=O=C(c1ccc2ccccc2c1)c1nc2cc(F)ccc2[n+]([O-])c1C(F)(F)F parameter_measured=TGI result_value="32.9 µM"
compound=COc1cc([C@@H]2c3cc4c(cc3[C@H](OC(C)=O)[C@H]3COC(=O)[C@@H]23)OCO4)cc(OC)c1OC parameter_measured=TGI result_value="> 100 µM"
compound=CCOC(=O)c1ccc(NC(=O)NC2=NCCS2)cc1 parameter_measured=TGI result_value="> 100 µM"
compound=c1ccc2c(c1)c1ccccc1n2Cn1c2ccccc2c2ccccc21 parameter_measured=TGI result_value="> 100 µM"
compound="CC1CC2(S(=O)(=O)c3ccccc3)ON1CC2S(=O)(=O)c1ccccc1 (centres undefined)" parameter_measured=TGI result_value="> 100 µM"
compound=CCOc1cc(/C=C/C(=O)C(C(=O)/C=C/c2ccc(OC(=O)CNc3nc4ccccc4[nH]3)c(OCC)c2)C(=O)CNc2nc3ccccc3[nH]2)ccc1OC(=O)CNc1nc2ccccc2[nH]1 parameter_measured=TGI result_value="5.93 µM"
compound=C/C(=N\NC(=O)c1ccc(Cl)cc1)c1nc2ncccc2[nH]1 parameter_measured=TGI result_value="48.9 µM"
compound=C1CCCCC2(CCCCCCCCC3(CCC1)SCCS3)SCCS2 parameter_measured=TGI result_value="> 100 µM"
compound=O=[N+]([O-])C(/C(Cl)=C(\Cl)Br)=C(/Cl)SCc1ccccc1 parameter_measured=TGI result_value="18.7 µM"
compound=c1ccc(-c2nc3n(c2-c2ccc4c(c2)OCO4)CCC3)nc1 parameter_measured=TGI result_value="> 23.4 µM"
compound=CCOc1ccc(N=C(NC(=O)c2ccccc2)SC)cc1 parameter_measured=TGI result_value="> 100 µM"
compound=CCCCCCCCCc1ccc(OCCOCCOCCOCCOCCOCCOCCOCCOCCO)cc1 parameter_measured=TGI result_value="1.63 µM"
